- SYSTEM_NAME: Thromboxane A2 receptor (Homo sapiens, UniProt P21731)
- Sequence (P21731 whole entry): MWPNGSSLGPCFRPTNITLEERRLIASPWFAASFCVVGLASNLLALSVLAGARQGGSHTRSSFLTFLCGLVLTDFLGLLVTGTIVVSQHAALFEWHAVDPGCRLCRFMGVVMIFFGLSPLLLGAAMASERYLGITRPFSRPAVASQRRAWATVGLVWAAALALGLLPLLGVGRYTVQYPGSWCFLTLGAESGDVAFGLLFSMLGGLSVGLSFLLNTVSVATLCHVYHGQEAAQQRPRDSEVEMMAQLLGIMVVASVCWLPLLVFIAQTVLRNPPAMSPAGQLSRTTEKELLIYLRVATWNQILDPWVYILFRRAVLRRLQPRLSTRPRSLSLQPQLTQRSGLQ
- PROCEDURE_SUMMARY: Inhibition of human TP receptor expressed in QBI-HEK 293A cells assessed as IP3 metabolite level after 1 hr by HTRF assay
OBSERVABLE: IC50 (nM)

# COMPOUND, IC50 [nM]
records = [
    ("O=C(O)CCc1cccc2c1CCC(NS(=O)(=O)c1ccc(Cl)cc1)C2 (stereo not drawn)", 2.6),
]

[I] O=C1CCC(Cc2cccc(CCNS(=O)(=O)c3ccc(Cl)cc3)c2)=C1O
[II] O=C1CC(c2cccc(CCNS(=O)(=O)c3ccc(Cl)cc3)c2)C=C1O (stereo not drawn)
Input line: Identify the entry with the larger IC50. Options: I and II Return value: the label identifying the chosen record.
Output line: II
(II: 1140 nM, I: 54 nM)
